Source of measurements: patent US5441983A

Tested on: HIV-HXB
Test: Inhibition of syncytia formation, HIV-HXB (HTLV-IIIB)
Conditions: Human immunodeficiency virus 1, 18 h, read-out: HIV-HXB ED100, complete inhibition of syncytia formation
So I've got a bunch of compounds here, and I need their EC100 values.

Item CCNS(=O)(=O)c1cc2cc(S(=O)(=O)NCC)c3c(O)c2c(O)c1Cc1c(S(=O)(=O)NCC)cc2cc(S(=O)(=O)NCC)c(c(O)c2c1O)Cc1c(S(=O)(=O)NCC)cc2cc(S(=O)(=O)NCC)c(c(O)c2c1O)Cc1c(S(=O)(=O)NCC)cc2cc(S(=O)(=O)NCC)c(c(O)c2c1O)C3 [KY-148] was tested on HIV-HXB; the reported EC100 is 250 µg/mL

Item O=S(=O)(NO)c1cc2cc(S(=O)(=O)NO)c3c(O)c2c(O)c1Cc1c(S(=O)(=O)NO)cc2cc(S(=O)(=O)NO)c(c(O)c2c1O)Cc1c(S(=O)(=O)NO)cc2cc(S(=O)(=O)NO)c(c(O)c2c1O)Cc1c(S(=O)(=O)NO)cc2cc(S(=O)(=O)NO)c(c(O)c2c1O)C3 [KY-359] was tested on HIV-HXB; the reported EC100 is 32 µg/mL

Item CCC(=O)Oc1c2c(S(=O)(=O)O)cc3cc(S(=O)(=O)O)c(c(OC(=O)CC)c13)Cc1c(S(=O)(=O)O)cc3cc(S(=O)(=O)O)c(c(OC(=O)CC)c3c1OC(=O)CC)Cc1c(S(=O)(=O)O)cc3cc(S(=O)(=O)O)c(c(OC(=O)CC)c3c1OC(=O)CC)Cc1c(S(=O)(=O)O)cc3cc(S(=O)(=O)O)c(c(OC(=O)CC)c3c1OC(=O)CC)C2 [KY-276] was tested on HIV-HXB; the reported EC100 is 16 µg/mL

###

So I've got a bunch of molecules here, and I need their EC100 values.
System: HIV-HXB
Assay: Inhibition of syncytia formation, HIV-HXB (HTLV-IIIB)
Settings: Human immunodeficiency virus 1, 18 h, read-out: HIV-HXB ED100, complete inhibition of syncytia formation

O=C(O)CCCCCCC(=O)Oc1c2c(S(=O)(=O)O)cc3cc(S(=O)(=O)O)c(c(OC(=O)CCCCCCC(=O)O)c13)Cc1c(S(=O)(=O)O)cc3cc(S(=O)(=O)O)c(c(OC(=O)CCCCCCC(=O)O)c3c1OC(=O)CCCCCCC(=O)O)Cc1c(S(=O)(=O)O)cc3cc(S(=O)(=O)O)c(c(OC(=O)CCCCCCC(=O)O)c3c1OC(=O)CCCCCCC(=O)O)Cc1c(S(=O)(=O)O)cc3cc(S(=O)(=O)O)c(c(OC(=O)CCCCCCC(=O)O)c3c1OC(=O)CCCCCCC(=O)O)C2 [KY-294] yielded EC100 of 16 µg/mL

C=CC1c2c(S(=O)(=O)O)cc3cc(S(=O)(=O)O)c(c(O)c3c2O)C(C=C)c2c(S(=O)(=O)O)cc3cc(S(=O)(=O)O)c(c(O)c3c2O)C(C=C)c2c(S(=O)(=O)O)cc3cc(S(=O)(=O)O)c(c(O)c3c2O)C(C=C)c2c(S(=O)(=O)O)cc3cc(S(=O)(=O)O)c1c(O)c3c2O (stereo not shown) [KY-97] yielded EC100 of 32 µg/mL

O=S(=O)(O)c1c2c(O)c3c(O)c(c(S(=O)(=O)O)c(O)c3c1O)Cc1c(S(=O)(=O)O)c(O)c3c(O)c(S(=O)(=O)O)c(c(O)c3c1O)Cc1c(S(=O)(=O)O)c(O)c3c(O)c(S(=O)(=O)O)c(c(O)c3c1O)Cc1c(S(=O)(=O)O)c(O)c3c(O)c(S(=O)(=O)O)c(c(O)c3c1O)C2 [KY-143] yielded EC100 of 250 µg/mL

O=S(=O)(O)c1c2c(O)c3c(O)c(c(S(=O)(=O)O)c(Br)c3c1Br)Cc1c(S(=O)(=O)O)c(Br)c3c(Br)c(S(=O)(=O)O)c(c(O)c3c1O)Cc1c(S(=O)(=O)O)c(Br)c3c(Br)c(S(=O)(=O)O)c(c(O)c3c1O)Cc1c(S(=O)(=O)O)c(Br)c3c(Br)c(S(=O)(=O)O)c(c(O)c3c1O)C2 [KY-194] yielded EC100 of 63 µg/mL

###

Tested on: HIV-RF-II
Experiment: Inhibition of syncytia formation, HIV-RF-II
Settings: Human immunodeficiency virus 1, 18 h, read-out: HIV-RF-II ED100, complete inhibition of syncytia formation
So I've got a bunch of compounds here, and I need their EC100 values.
Reply numerically in µg/mL, unit not repeated.

`CCC(=O)Oc1c2c(S(=O)(=O)O)cc3cc(S(=O)(=O)O)c(c(OC(=O)CC)c13)Cc1c(S(=O)(=O)O)cc3cc(S(=O)(=O)O)c(c(OC(=O)CC)c3c1OC(=O)CC)Cc1c(S(=O)(=O)O)cc3cc(S(=O)(=O)O)c(c(OC(=O)CC)c3c1OC(=O)CC)Cc1c(S(=O)(=O)O)cc3cc(S(=O)(=O)O)c(c(OC(=O)CC)c3c1OC(=O)CC)C2` yielded EC100 of 32

`O=S(=O)(O)c1c2c(O)c3c(O)c(c(S(=O)(=O)O)c(Br)c3c1Br)Cc1c(S(=O)(=O)O)c(Br)c3c(Br)c(S(=O)(=O)O)c(c(O)c3c1O)Cc1c(S(=O)(=O)O)c(Br)c3c(Br)c(S(=O)(=O)O)c(c(O)c3c1O)Cc1c(S(=O)(=O)O)c(Br)c3c(Br)c(S(=O)(=O)O)c(c(O)c3c1O)C2` yielded EC100 of 125

`CCCCCC(=O)Oc1c2c(S(=O)(=O)O)cc3cc(S(=O)(=O)O)c(c(OC(=O)CCCCC)c13)Cc1c(S(=O)(=O)O)cc3cc(S(=O)(=O)O)c(c(OC(=O)CCCCC)c3c1OC(=O)CCCCC)Cc1c(S(=O)(=O)O)cc3cc(S(=O)(=O)O)c(c(OC(=O)CCCCC)c3c1OC(=O)CCCCC)Cc1c(S(=O)(=O)O)cc3cc(S(=O)(=O)O)c(c(OC(=O)CCCCC)c3c1OC(=O)CCCCC)C2` yielded EC100 of 32

###

System: HSV-2
Test: Plaque reduction assay, HSV-2, Vero cells
Format: cell-based, HSV-2 (333)
Details: Human alphaherpesvirus 2, Vero
So I've got a bunch of molecules here, and I need their IC50 values.
Reply numerically in µg/mL, unit not repeated.

`O=S(O)c1cc2cc(S(=O)O)c3c(O)c2c(O)c1Cc1c(S(=O)O)cc2cc(S(=O)O)c(c(O)c2c1O)Cc1c(S(=O)O)cc2cc(S(=O)O)c(c(O)c2c1O)Cc1c(S(=O)O)cc2cc(S(=O)O)c(c(O)c2c1O)C3` yielded IC50 of 1.5

`O=S(=O)(O)c1cc2c(O)c(c1)Cc1cc(S(=O)(=O)O)cc(c1O)Cc1cc(S(=O)(=O)O)cc(c1O)Cc1cc(S(=O)(=O)O)cc(c1O)Cc1cc(S(=O)(=O)O)cc(c1O)Cc1cc(S(=O)(=O)O)cc(c1O)Cc1cc(S(=O)(=O)O)cc(c1O)Cc1cc(S(=O)(=O)O)cc(c1O)C2` yielded IC50 of 7.2

###

So I've got a bunch of molecules here, and I need their EC100 values.
Test system: HIV-RF-II
Test: Inhibition of syncytia formation, HIV-RF-II
Settings: Human immunodeficiency virus 1, 18 h, read-out: HIV-RF-II ED100, complete inhibition of syncytia formation
Reply numerically in µg/mL, unit not repeated.

O=C(O)CCCCCCC(=O)Oc1c2c(S(=O)(=O)O)cc3cc(S(=O)(=O)O)c(c(OC(=O)CCCCCCC(=O)O)c13)Cc1c(S(=O)(=O)O)cc3cc(S(=O)(=O)O)c(c(OC(=O)CCCCCCC(=O)O)c3c1OC(=O)CCCCCCC(=O)O)Cc1c(S(=O)(=O)O)cc3cc(S(=O)(=O)O)c(c(OC(=O)CCCCCCC(=O)O)c3c1OC(=O)CCCCCCC(=O)O)Cc1c(S(=O)(=O)O)cc3cc(S(=O)(=O)O)c(c(OC(=O)CCCCCCC(=O)O)c3c1OC(=O)CCCCCCC(=O)O)C2 [KY-294] yielded EC100 of 16

CC(=O)Oc1c2c(S(=O)(=O)O)cc3cc(S(=O)(=O)O)c(c(OC(C)=O)c13)C(C(=O)O)c1c(S(=O)(=O)O)cc3cc(S(=O)(=O)O)c(c(OC(C)=O)c3c1OC(C)=O)C(C(=O)O)c1c(S(=O)(=O)O)cc3cc(S(=O)(=O)O)c(c(OC(C)=O)c3c1OC(C)=O)C(C(=O)O)c1c(S(=O)(=O)O)cc3cc(S(=O)(=O)O)c(c(OC(C)=O)c3c1OC(C)=O)C2C(=O)O (stereo not shown) [KY-272] yielded EC100 of 250

CC(=O)Oc1c2c(S(=O)(=O)O)cc3cc(S(=O)(=O)O)c(c(OC(C)=O)c13)Cc1c(S(=O)(=O)O)cc3cc(S(=O)(=O)O)c(c(OC(C)=O)c3c1OC(C)=O)Cc1c(S(=O)(=O)O)cc3cc(S(=O)(=O)O)c(c(OC(C)=O)c3c1OC(C)=O)Cc1c(S(=O)(=O)O)cc3cc(S(=O)(=O)O)c(c(OC(C)=O)c3c1OC(C)=O)C2 [KY-270] yielded EC100 of 32

Oc1c2c(S)cc3cc(S)c(c(O)c13)Cc1c(S)cc3cc(S)c(c(O)c3c1O)Cc1c(S)cc3cc(S)c(c(O)c3c1O)Cc1c(S)cc3cc(S)c(c(O)c3c1O)C2 [KY-171] yielded EC100 of 250

O=S(O)c1cc2cc(S(=O)O)c3c(O)c2c(O)c1Cc1c(S(=O)O)cc2cc(S(=O)O)c(c(O)c2c1O)Cc1c(S(=O)O)cc2cc(S(=O)O)c(c(O)c2c1O)Cc1c(S(=O)O)cc2cc(S(=O)O)c(c(O)c2c1O)C3 [KY-123] yielded EC100 of 16

COS(=O)(=O)c1cc2cc(S(=O)(=O)OC)c3c(O)c2c(O)c1Cc1c(S(=O)(=O)OC)cc2cc(S(=O)(=O)OC)c(c(O)c2c1O)Cc1c(S(=O)(=O)OC)cc2cc(S(=O)(=O)OC)c(c(O)c2c1O)Cc1c(S(=O)(=O)OC)cc2cc(S(=O)(=O)OC)c(c(O)c2c1O)C3 [KY-175] yielded EC100 of 250

CCCCC(=O)Oc1c2c(S(=O)(=O)O)cc3cc(S(=O)(=O)O)c(c(OC(=O)CCCC)c13)Cc1c(S(=O)(=O)O)cc3cc(S(=O)(=O)O)c(c(OC(=O)CCCC)c3c1OC(=O)CCCC)Cc1c(S(=O)(=O)O)cc3cc(S(=O)(=O)O)c(c(OC(=O)CCCC)c3c1OC(=O)CCCC)Cc1c(S(=O)(=O)O)cc3cc(S(=O)(=O)O)c(c(OC(=O)CCCC)c3c1OC(=O)CCCC)C2 [KY-289] yielded EC100 of 32
